Molecular target: hGalectin-3 (Homo sapiens, UniProt P17931)
Construct: made in house
Sequence (P17931 whole entry): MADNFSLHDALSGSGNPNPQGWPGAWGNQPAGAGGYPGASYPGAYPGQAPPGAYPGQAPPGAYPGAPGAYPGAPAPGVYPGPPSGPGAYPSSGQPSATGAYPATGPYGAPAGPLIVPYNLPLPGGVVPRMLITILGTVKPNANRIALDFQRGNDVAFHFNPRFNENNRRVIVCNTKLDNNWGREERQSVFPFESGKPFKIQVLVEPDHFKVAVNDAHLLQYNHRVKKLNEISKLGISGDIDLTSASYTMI
Experiment: Gal-3 ELISA assay (hGalectin-3 neutralization binding to asialofetuin)
Conditions: biotin-tagged hGalectin-3 15 nM, ASF-coated plate; read-out: hGal3 IC50
Exercise: state measured pIC50 for each of the compounds provided.
The read-out pIC50 is expressed as -log10 of concentration in moles per litre.

**Query** Form field: reported pIC50 of C[C@@H]1CN(c2ccc(O)cc2)[C@@H](C)CN1C(=O)[C@@H]1O[C@H](CO)[C@H](O)[C@H](n2cc(-c3cccc(F)c3)nn2)[C@H]1O (single isomer, unassigned) [Example 37b]
**Result** 6.51

**Query** Form field: reported pIC50 of "O=C(Nc1ccc(O)cc1)N1C[C@@H]2C[C@H]1CN2C(=O)[C@@H]1O[C@H](CO)[C@H](O)[C@H](n2cc(-c3cccc(F)c3)nn2)[C@H]1O"
**Result** 6.30

**Query** Form field: reported pIC50 of "CO[C@@H]1[C@@H](n2cc(-c3cccc(F)c3)nn2)[C@@H](O)[C@@H](CO)O[C@H]1C(=O)N1CCN(c2ccc(O)cc2)CC1"
**Result** 6.82

**Query** Form field: reported pIC50 of O=C([C@@H]1O[C@H](CO)[C@H](O)[C@H](n2cc(-c3cccc(F)c3)nn2)[C@H]1O)N1CCN(c2ccc(O)cc2)C(CO)C1 (single isomer, unassigned) [Example 35b]
**Result** 6.85

**Query** Form field: reported pIC50 of "O=C([C@@H]1O[C@H](CO)[C@H](O)[C@H](n2cc(-c3cccc(F)c3)nn2)[C@H]1O)N1C[C@@H]2C[C@H]1CN2c1ccc(O)cc1"
**Result** 6.05

**Query** Form field: reported pIC50 of "CS(=O)(=O)Nc1ccc(N2C[C@@H]3C[C@H]2CN3C(=O)[C@@H]2O[C@H](CO)[C@H](O)[C@H](n3cc(-c4cccc(F)c4)nn3)[C@H]2O)cc1"
**Result** 6.17

**Query** Form field: reported pIC50 of "O=C(C[C@@H]1O[C@H](CO)[C@H](O)[C@H](n2cc(-c3cccc(F)c3)nn2)[C@H]1O)N1C[C@@H]2C[C@H]1CN2c1ccc2c(c1)OCO2"
**Result** 6.24

**Query** Form field: reported pIC50 of O=C([C@@H]1O[C@H](CO)[C@H](O)[C@H](n2cc(-c3cccc(F)c3)nn2)[C@H]1O)N1CCN(c2ccc(O)cc2)C(CO)C1 (single isomer, unassigned) [Example 35a]
**Result** 5.96

**Query** Form field: reported pIC50 of "CS(=O)(=O)Nc1ccc(N2C[C@@H]3C[C@H]2CN3C(=O)[C@@H]2O[C@H](CO)[C@H](O)[C@H](n3cc(-c4cccc(F)c4)nn3)[C@H]2O)cn1"
**Result** 6.38

**Query** Form field: reported pIC50 of "CS(=O)(=O)Nc1ccc(N2CCN(C(=O)[C@@H]3O[C@H](CO)[C@H](O)[C@H](n4cc(-c5cccc(F)c5)nn4)[C@H]3O)CC2)nc1"
**Result** 6.12

**Query** Form field: reported pIC50 of "O=C(Nc1ccc(O)cc1)N1CCN(C(=O)[C@@H]2O[C@H](CO)[C@H](O)[C@H](n3cc(-c4cccc(F)c4)nn3)[C@H]2O)CC1"
**Result** 6.60

**Query** Form field: reported pIC50 of OCC1CN(C[C@@H]2O[C@H](CO)[C@H](O)[C@H](n3cc(-c4cccc(F)c4)nn3)[C@H]2O)CCN1c1ccc(O)cc1 (single isomer, unassigned) [Example 40a]
**Result** 6.03

====

Target: hGalectin-3 (Homo sapiens, UniProt P17931)
Construct: made in house
Assay: Gal-3 ELISA assay (hGalectin-3 neutralization binding to asialofetuin)
Conditions: biotin-tagged hGalectin-3 15 nM, ASF-coated plate; read-out: hGal3 IC50
Readout Name: pIC50
The read-out pIC50 is expressed as -log10 of concentration in moles per litre.

**Query** Form field: reported pIC50 of COc1ccc(N2C[C@@H]3C[C@H]2CN3C[C@@H]2O[C@H](CO)[C@H](O)[C@H](n3cc(-c4cccc(F)c4)nn3)[C@H]2O)cc1 [Example 29]
**Result** 6.60

**Query** Form field: reported pIC50 of COc1ccc(N2CC3CC2CN3C(=O)[C@@H]2O[C@H](CO)[C@H](O)[C@H](n3cc(-c4cccc(F)c4)nn3)[C@H]2O)cc1 (stereo in doubt) [Example 31]
**Result** 6.66

**Query** Form field: reported pIC50 of Cc1ccc(N2C[C@H]3CN(C(=O)[C@@H]4O[C@H](CO)[C@H](O)[C@H](n5cc(-c6cccc(F)c6)nn5)[C@H]4O)C[C@H]3C2)cc1 [Example 38]
**Result** 6.40

**Query** Form field: reported pIC50 of O=C([C@@H]1O[C@H](CO)[C@H](O)[C@H](n2cc(-c3cccc(F)c3)nn2)[C@H]1O)N1CCN(c2ccc(O)cc2)CC1CO (single isomer, unassigned) [Example 34a]
**Result** 5.89

**Query** Form field: reported pIC50 of O=C([C@@H]1O[C@H](CO)[C@H](O)[C@H](n2cc(-c3cccc(F)c3)nn2)[C@H]1O)N1C[C@@H]2C[C@H]1CN2c1ccc2[nH]ccc2c1 [Example 26]
**Result** 6.52

**Query** Form field: reported pIC50 of O=C([C@@H]1O[C@H](CO)[C@H](O)[C@H](n2cc(-c3cccc(F)c3)nn2)[C@H]1O)N1CCN(c2ccc(O)cn2)CC1 [Example 2]
**Result** 6.57

====

Biological target: hGalectin-3 (Homo sapiens, UniProt P17931)
Construct: made in house
Assay: Gal-3 ELISA assay (hGalectin-3 neutralization binding to asialofetuin)
Details: biotin-tagged hGalectin-3 15 nM, ASF-coated plate; read-out: hGal3 IC50
The label TRUE is reserved for IC50 strictly under 400 nM; FALSE covers values equal to or above it.

**Query** Dear colleague, could you confirm whether IC50 of COc1ccc(N2CCN(C(=O)[C@@H]3O[C@H](CO)[C@H](O)[C@H](n4cc(-c5cccc(F)c5)nn4)[C@H]3OC)CC2)cc1 [Example 11] falls below 400 nM? Thanks.
**Result** TRUE

**Query** Dear colleague, could you confirm whether IC50 of O=C([C@@H]1O[C@H](CO)[C@H](O)[C@H](n2cc(-c3cccc(F)c3)nn2)[C@H]1O)N1CCN(c2ccc(O)cc2)CC1 [Example 1] falls below 400 nM? Thanks.
**Result** TRUE

**Query** Dear colleague, could you confirm whether IC50 of COc1ccc(N2C[C@@H]3C[C@H]2CN3C(=O)C[C@@H]2O[C@H](CO)[C@H](O)[C@H](n3cc(-c4cccc(F)c4)nn3)[C@H]2O)cc1 [Example 27] falls below 400 nM? Thanks.
**Result** TRUE

**Query** Dear colleague, could you confirm whether IC50 of COC(=O)Nc1ccc(N2C[C@@H]3C[C@H]2CN3C(=O)[C@@H]2O[C@H](CO)[C@H](O)[C@H](n3cc(-c4cccc(F)c4)nn3)[C@H]2O)cc1 [Example 23] falls below 400 nM? Thanks.
**Result** FALSE

**Query** Dear colleague, could you confirm whether IC50 of CS(=O)(=O)Nc1ccc(N2C[C@@H]3C[C@H]2CN3C(=O)[C@@H]2O[C@H](CO)[C@H](O)[C@H](n3cc(-c4cccc(F)c4)nn3)[C@H]2O)nc1 [Example 41] falls below 400 nM? Thanks.
**Result** FALSE

**Query** Dear colleague, could you confirm whether IC50 of O=C([C@@H]1O[C@H](CO)[C@H](O)[C@H](n2cc(-c3cccc(F)c3)nn2)[C@H]1O)N1CCCN(c2ccc(O)cc2)CC1 [Example 33] falls below 400 nM? Thanks.
**Result** FALSE

====

Exercise: state measured IC50 for each of the compounds provided.
Biological target: hGalectin-3 (Homo sapiens)
Construct: made in house
Experiment: Gal-3 ELISA assay (hGalectin-3 neutralization binding to asialofetuin)
Conditions: biotin-tagged hGalectin-3 15 nM, ASF-coated plate; read-out: hGal3 IC50
Please respond with the number in µM and leave the unit unwritten.

**Query** Form field: reported IC50 of "CO[C@@H]1[C@@H](n2cc(-c3cccc(F)c3)nn2)[C@@H](O)[C@@H](CO)O[C@H]1C(=O)N1CCN(c2ccc(O)cn2)CC1"
**Result** 0.47

**Query** Form field: reported IC50 of OCC1CN(c2ccc(O)cc2)CCN1C[C@@H]1O[C@H](CO)[C@H](O)[C@H](n2cc(-c3cccc(F)c3)nn2)[C@H]1O (single isomer, unassigned) [Example 39b]
**Result** 0.39

**Query** Form field: reported IC50 of OCC1CN(c2ccc(O)cc2)CCN1C[C@@H]1O[C@H](CO)[C@H](O)[C@H](n2cc(-c3cccc(F)c3)nn2)[C@H]1O (single isomer, unassigned) [Example 39a]
**Result** 0.31

**Query** Form field: reported IC50 of C[C@@H]1CN(c2ccc(O)cc2)[C@@H](C)CN1C(=O)[C@@H]1O[C@H](CO)[C@H](O)[C@H](n2cc(-c3cccc(F)c3)nn2)[C@H]1O (single isomer, unassigned) [Example 37a]
**Result** 0.35

**Query** Form field: reported IC50 of OCC1CN(C[C@@H]2O[C@H](CO)[C@H](O)[C@H](n3cc(-c4cccc(F)c4)nn3)[C@H]2O)CCN1c1ccc(O)cc1 (single isomer, unassigned) [Example 40b]
**Result** 1.6
